test: Inhibition of PDE4 in PBMC (unknown origin) assessed as reduction in LPS-induced TNFalpha production incubated for 24 hrs by ELISA; details: Homo sapiens
pIC50: −log10 of the molar value.
Consider the following compounds and their measured pIC50 readings.
Measured metric: pIC50

* CCn1nc(-c2cccc(-c3ccccc3C(=O)O)c2)cc(NC(=O)Nc2c(Cl)cncc2Cl)c1=O | 7.99
* CCn1nc(-c2cccc(-c3ccc(F)c(C(=O)O)c3)c2)cc(NC(=O)Nc2c(Cl)cncc2Cl)c1=O | 7.58
* CCn1nc(-c2cccc(-c3cc(F)ccc3O)c2)cc(NC(=O)Nc2c(Cl)cncc2Cl)c1=O | 9.06
* CCn1nc(-c2cccc(-c3cncc(O)c3)c2)cc(NC(=O)Nc2c(Cl)cncc2Cl)c1=O | 9.54

###

system: Rattus norvegicus; test: Anti-inflammatory activity in Sprague-Dawley rat assessed as inhibition of LPS-induced neutrophilia at 25 ug/kg, it administered as suspension with Penn-Century micro-sprayer aerosolizer dosed 1 hrs before LPS challenge and measured 5 hrs post dose; format: functional; details: inhaled or nasal
Measured metric: inhibition in vivo at 0.025 mg/kg

• CCn1nc(-c2cccc(-c3cc(C(=O)NC4CC4)cc(C(=O)NC4CC4)c3)c2)cc(NC(=O)Nc2c(Cl)cncc2Cl)c1=O = 54%
• CCn1nc(-c2cccc(-c3cc(C(=O)NCCN4CCCCC4)cc(C(=O)NC4CC4)c3)c2)cc(NC(=O)Nc2c(Cl)cncc2Cl)c1=O = 25%
• CCn1nc(-c2cccc(-c3cc(C(=O)NCC[C@H]4CCCN4C)cc(C(=O)NC4CC4)c3)c2)cc(NC(=O)Nc2c(Cl)cncc2Cl)c1=O = 42%
• CCn1nc(-c2cccc(-c3cc(OCC4CC4)cc(C(=O)NCCN4CCCCC4)c3)c2)cc(NC(=O)Nc2c(Cl)cncc2Cl)c1=O = 60%
• CCOc1cc(C(=O)NC2CC2)cc(-c2cccc(-c3cc(NC(=O)Nc4c(Cl)cncc4Cl)c(=O)n(CC)n3)c2)c1 = 26%
• CCn1nc(-c2cccc(-c3cc(C(=O)NCCO)cc(C(=O)NCCN4CCCCC4)c3)c2)cc(NC(=O)Nc2c(Cl)cncc2Cl)c1=O = 33%
• CCn1nc(-c2cccc(-c3cc(C(=O)NCCN4CCOCC4)cc(C(=O)NC4CC4)c3)c2)cc(NC(=O)Nc2c(Cl)cncc2Cl)c1=O = 55%

###

assay: Inhibition of PDE4 in PBMC (unknown origin) assessed as reduction in LPS-induced TNFalpha production incubated for 24 hrs by ELISA; conditions: Homo sapiens
Checkbox rule: IC50 lower than 0.3 nM = met; IC50 not lower than 0.3 nM = not met.

• CCn1nc(-c2cccc(-c3cccc(CC(=O)NCCCCCCCN(C)CCO)c3)c2)cc(NC(=O)Nc2c(Cl)cncc2Cl)c1=O = not met
• CCn1nc(-c2cccc(-c3ccc(O)c(F)c3)c2)cc(NC(=O)Nc2c(Cl)cncc2Cl)c1=O = not met
• CCn1nc(-c2cccc(-c3cccc(CC(=O)O)c3)c2)cc(NC(=O)Nc2c(Cl)cncc2Cl)c1=O = not met
• CCn1nc(-c2ccccc2)c(C(C)=O)c(Nc2ccc(C(=O)O)cc2)c1=O = not met
• CCn1nc(-c2cccc(-c3cccc(C(=O)NCCCCCCCN(C)CCO)c3)c2)cc(NC(=O)Nc2c(Cl)cncc2Cl)c1=O = met
• CCn1nc(-c2cccc(-c3ccc(C(N)=O)cc3)c2)cc(NC(=O)Nc2c(Cl)cncc2Cl)c1=O = met
• CCn1nc(-c2cccc(-c3ccc(CC(=O)NCCCCCCCN(C)CCO)cc3)c2)cc(NC(=O)Nc2c(Cl)cncc2Cl)c1=O = not met
• CCn1nc(-c2cccc(-c3ccc(CC(=O)NCCN4CCCCC4)cc3)c2)cc(NC(=O)Nc2c(Cl)cncc2Cl)c1=O = not met
• CCn1nc(-c2cccc(-c3cc(OCC4CC4)cc(C(=O)NCCN4CCCCC4)c3)c2)cc(NC(=O)Nc2c(Cl)cncc2Cl)c1=O = not met
• CCn1nc(-c2cccc(-c3ccc(C(=O)O)cc3)c2)cc(NC(=O)Nc2c(Cl)cncc2Cl)c1=O = not met
• CCn1nc(-c2cccc(-c3cc(C(=O)NCCO)cc(C(=O)NCCN4CCCCC4)c3)c2)cc(NC(=O)Nc2c(Cl)cncc2Cl)c1=O = not met
• O=C(Nc1c(Cl)cncc1Cl)c1ccc(OC(F)F)c(OCC2CC2)c1 [ROFLUMILAST] = not met
• CCn1nc(-c2cccc(-c3cc(C#N)cc(C(=O)NC4CC4)c3)c2)cc(NC(=O)Nc2c(Cl)cncc2Cl)c1=O = met
• CCn1nc(-c2cccc(-c3cccc(O)c3)c2)cc(NC(=O)Nc2c(Cl)cncc2Cl)c1=O = not met
